# ASSAY SYSTEM: 5'-nucleotidase (Homo sapiens, UniProt P21589)
# Sequence (P21589 whole entry): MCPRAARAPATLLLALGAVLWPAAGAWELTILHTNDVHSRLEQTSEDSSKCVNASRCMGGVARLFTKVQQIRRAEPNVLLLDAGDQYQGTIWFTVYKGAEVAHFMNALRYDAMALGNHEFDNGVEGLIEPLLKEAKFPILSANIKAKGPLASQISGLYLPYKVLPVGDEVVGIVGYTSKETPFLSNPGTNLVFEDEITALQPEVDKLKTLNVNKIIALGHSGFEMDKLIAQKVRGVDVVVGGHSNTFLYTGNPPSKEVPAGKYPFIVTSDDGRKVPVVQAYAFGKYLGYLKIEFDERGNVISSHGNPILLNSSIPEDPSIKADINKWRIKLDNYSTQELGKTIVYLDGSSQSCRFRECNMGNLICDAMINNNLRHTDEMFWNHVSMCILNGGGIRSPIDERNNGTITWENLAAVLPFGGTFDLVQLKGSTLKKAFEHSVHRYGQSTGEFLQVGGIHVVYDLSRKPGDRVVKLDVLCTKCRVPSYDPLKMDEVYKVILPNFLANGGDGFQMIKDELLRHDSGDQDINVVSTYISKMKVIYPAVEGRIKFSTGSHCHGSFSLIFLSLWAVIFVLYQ
# ASSAY REMARKS: Inhibition of CD73 in human MDA-MB-231 cell membranes using [2,8-3H]AMP as substrate measured after 25 mins by scintillation counting method
READOUT NAME: pKi
Give bare numbers, as −log10 of the molar value.

Reference set (4 entries):
| STRUCTURE AS SMILES | pKi |
| --- | --- |
| O=c1[nH]/c(=N/OCc2ccc3ccccc3c2)ccn1[C@@H]1O[C@H](COP(=O)(O)CP(=O)(O)O)[C@@H](O)[C@H]1O | 8.20 |
| Cn1c(=NOCc2ccccc2)ccn([C@@H]2O[C@H](COP(=O)(O)CP(=O)(O)O)[C@@H](O)[C@H]2O)c1=O | 8.10 |
| O=c1[nH]/c(=N/OCc2ccccc2)c(F)cn1[C@@H]1O[C@H](COP(=O)(O)CP(=O)(O)O)[C@@H](O)[C@H]1O | 7.78 |
| O=C(Nc1ccn([C@@H]2O[C@H](COP(=O)(O)CP(=O)(O)O)[C@@H](O)[C@H]2O)c(=O)n1)c1ccccc1 | 8.25 |

Please turn your attention to the following entry.
Given the compound O=c1[nH]c(=O)n([C@@H]2O[C@H](COP(=O)(O)CP(=O)(O)O)[C@@H](O)[C@H]2O)cc1F , what is its reported pKi?
8.35

Each recorded value in this set is attributed to ChEMBL document CHEMBL4390678.
